# Test system: HCC1937
# PROCEDURE TEXT: normalised response (% of control), CellTox Green; higher = less cell death (100 = DMSO, 0 = benzethonium chloride kill control)
# CONDITION SET: incubation time: 72 h
Reported normalised response values for the following compounds.
Don't forget the unit after the number, please.

Recorded normalised response, per entry:
COMPOUND	OBS VALUE
C/C(=C\c1csc(C)n1)[C@@H]1C[C@@H]2O[C@]2(C)CCC[C@H](C)[C@H](O)[C@@H](C)C(=O)C(C)(C)[C@@H](O)CC(=O)O1 [Patupilone] (10 nM)	99.4%
C/C(=C\c1csc(C)n1)[C@@H]1C[C@@H]2O[C@]2(C)CCC[C@H](C)[C@H](O)[C@@H](C)C(=O)C(C)(C)[C@@H](O)CC(=O)O1 [Patupilone] (100 nM)	81.2%
O=C(O)CCCc1ccc(N(CCCl)CCCl)cc1 [Chlorambucil] (10000 nM)	105%
CN(C)C[C@@H]1CCn2cc(c3ccccc32)C2=C(C(=O)NC2=O)c2cn(c3ccccc23)CCO1 [Ruboxistaurin] (10000 nM)	33%
Cn1cncc1[C@@](N)(c1ccc(Cl)cc1)c1ccc2c(c1)c(-c1cccc(Cl)c1)cc(=O)n2C [Tipifarnib] (100 nM)	99.6%
CN(C)C[C@@H]1CCn2cc(c3ccccc32)C2=C(C(=O)NC2=O)c2cn(c3ccccc23)CCO1 [Ruboxistaurin] (100 nM)	90%

Input: Quick one: give measured normalised response for CCCCCCCCc1ccc(CCC(N)(CO)CO)cc1 [Fingolimod] (100 nM)
Output: 115%

Input: Quick one: give measured normalised response for CNNCc1ccc(C(=O)NC(C)C)cc1 [Procarbazine] (1000 nM)
Output: 105%

* * *

# Test system: MDA-MB-231
# PROCEDURE TEXT: normalised response (% of control), CellTiter-Glo; higher = more viable cells (100 = DMSO, 0 = benzethonium chloride kill control)
# CONDITION SET: incubation time: 72 h
Reported normalised response values for the following compounds.
Give the quantity in %, number only.

Recorded normalised response, per entry:
COMPOUND	normalised response (%)
Cn1c(=O)n(-c2ccc(C(C)(C)C#N)cc2)c2c3cc(-c4cnc5ccccc5c4)ccc3ncc21 [Dactolisib] (1 nM)	107
Cc1ccc(NC(=O)c2ccc(CN3CCN(C)CC3)cc2)cc1Nc1nccc(-c2cccnc2)n1 [Imatinib] (1 nM)	105

Input: Quick one: give measured normalised response for CC[C@]1(O)C[C@H]2CN(CCc3c([nH]c4ccccc34)[C@@](C(=O)OC)(c3cc4c(cc3OC)N(C=O)[C@H]3[C@@](O)(C(=O)OC)[C@H](OC(C)=O)[C@]5(CC)C=CCN6CC[C@]43[C@@H]65)C2)C1 [Vincristine] (100 nM)
Output: 53.2

Input: Quick one: give measured normalised response for COc1ccc(-c2ccc3c(N4CCOC[C@@H]4C)nc(N4CCOC[C@@H]4C)nc3n2)cc1CO [AZD8055] (1000 nM)
Output: 36.5

* * *

# Test system: BT-549
# PROCEDURE TEXT: normalised response (% of control), CellTiter-Glo; higher = more viable cells (100 = DMSO, 0 = benzethonium chloride kill control)
# CONDITION SET: incubation time: 72 h
Reported normalised response values for the following molecules.
Give the quantity in %, number only.

Recorded normalised response, per entry:
MOLECULE	normalised response / %
CO[C@H]1C[C@@H]2CC[C@@H](C)[C@@](O)(O2)C(=O)C(=O)N2CCCC[C@H]2C(=O)O[C@H]([C@H](C)C[C@@H]2CC[C@@H](OCCO)[C@H](OC)C2)CC(=O)[C@H](C)/C=C(\C)[C@@H](O)[C@@H](OC)C(=O)[C@H](C)C[C@H](C)/C=C/C=C/C=C/1C [Everolimus] (1 nM)	63.6
c1ccc([C@H]2CN3CCSC3=N2)cc1 [Levamisole] (100 nM)	98.3
CCCCCCCCc1ccc(CCC(N)(CO)CO)cc1 [Fingolimod] (100 nM)	95.8
CN(C)CCN1C(=O)c2cccc3cc(N)cc(c23)C1=O [Amonafide] (100 nM)	106

Input: Quick one: give measured normalised response for Cn1c(=O)n(-c2ccc(C(C)(C)C#N)cc2)c2c3cc(-c4cnc5ccccc5c4)ccc3ncc21 [Dactolisib] (10 nM)
Output: 61.5

Input: Quick one: give measured normalised response for Nc1ncnc2c1c(COc1cccc(Cl)c1)nn2C1CCOCC1 (100 nM)
Output: 98.8

Input: Quick one: give measured normalised response for Nc1nc(OCc2cc(Br)cs2)c2[nH]cnc2n1 [Lomeguatrib] (100 nM)
Output: 99.2

Input: Quick one: give measured normalised response for CNNCc1ccc(C(=O)NC(C)C)cc1 [Procarbazine] (100 nM)
Output: 109

Input: Quick one: give measured normalised response for CC(C)c1c(C(=O)Nc2ccccc2)c(-c2ccccc2)c(-c2ccc(F)cc2)n1CC[C@@H](O)C[C@@H](O)CC(=O)O [Atorvastatin] (100 nM)
Output: 94
